Target: human KV7.2/KV7.3 (Homo sapiens (Human), UniProt O43525+O43526)
Assay: Potassium flux assay (IPG-2 AM dye)
Details: TREX HEK 293 or HEK 293 cells expressing human KV7.2/KV7.3; arithmetic mean values

molecule: CC(=O)N[C@@H]1CCC[C@H](Oc2ccc3c(Nc4cnc(Cl)nc4)nccc3c2)C1
study_system: human KV7.2/KV7.3 (Homo sapiens (Human), UniProt O43525+O43526)
EC50: < 1000 nM
//
molecule: C[C@@H](Oc1ccc2c(Nc3ccc(Cl)nc3)nccc2c1)c1cnn(C)c1
study_system: human KV7.2/KV7.3 (Homo sapiens (Human), UniProt O43525+O43526)
EC50: < 1000 nM
//
molecule: Cn1cc(COc2ccc3c(Nc4ccc(Cl)nc4)nccc3c2)c(Cl)n1
study_system: human KV7.2/KV7.3 (Homo sapiens (Human), UniProt O43525+O43526)
EC50: < 1000 nM
//
molecule: FC1(COc2ccc3c(Nc4cncnc4)nccc3c2)CC1
study_system: human KV7.2/KV7.3 (Homo sapiens (Human), UniProt O43525+O43526)
EC50: 1000 to 10000 nM
//
molecule: Cn1ccc(COc2ccc3c(Nc4cnc(Cl)nc4)nccc3c2)n1
study_system: human KV7.2/KV7.3 (Homo sapiens (Human), UniProt O43525+O43526)
EC50: < 1000 nM
//
molecule: CC(Oc1ccc2c(Nc3cnc(Cl)nc3)nccc2c1)C1(C#N)CC1 (stereo not shown)
study_system: human KV7.2/KV7.3 (Homo sapiens (Human), UniProt O43525+O43526)
EC50: < 1000 nM
//
molecule: CC1(CCOc2ccc3c(Nc4ccc(Cl)nc4)nccc3c2)COC1
study_system: human KV7.2/KV7.3 (Homo sapiens (Human), UniProt O43525+O43526)
EC50: 1000 to 10000 nM
